Test system: SF-268
Assay: NCI tumour cell line growth inhibition, 48 h
Activity calls are given as the source filed them. Rule as the data show it: active = GI50 up to about 1.1 µM and inactive = higher.
measurement.kind: GI50

| compound | assay.result |
| --- | --- |
| CC(C)N1CCCOC(c2ccc([N+](=O)[O-])cc2)O1 (stereo unspecified) | > 100 µM (inactive) |
| CCN(CC)c1nnc(CCCCCCCCc2nnc(N(CC)CC)o2)o1 | > 100 µM (inactive) |
| COc1ccc2cc(NC(=O)N/N=C\c3ccc([N+](=O)[O-])cc3)ccc2c1 | 20.1 µM (inactive) |

// recorded GI50 for NC(CNO)C(=O)O (stereo unspecified) : > 100 µM (inactive)

// recorded GI50 for CCOC(OCC)C(CCc1ccccc1)c1c(N)nc(N)[nH]c1=O (stereo unspecified) : 52 µM (inactive)

// recorded GI50 for Cc1ccc(S(=O)(=O)NC(=O)NCCC(=O)O)cc1 : > 100 µM (inactive)

Data provenance: ChEMBL document CHEMBL1201862
